Test system: Plutella xylostella
MEASUREMENT DESCRIPTION: Insecticidal activities to diamondback moth, feeding dipped leaves
Format: in vivo
TEST CONDITIONS: in vivo
OBSERVED PROPERTY: Plutella xylostella Mortality (%) 500 ppm

COMPOUND: O=[N+]([O-])C(=Cc1cc(Br)c(Br)s1)C1=NCCN1Cc1ccc(Cl)nc1 [Compound 25]
UNITS SYMBOL: %
MEASURED RESULT: 100
//
COMPOUND: CC(=C(C1=NCCN1C(C)c1ccc(Cl)nc1)[N+](=O)[O-])c1ccoc1 (racemic) [Compound 134]
UNITS SYMBOL: %
MEASURED RESULT: 46
//
COMPOUND: C[N+]1=C(C(=Cc2ccc([N+](=O)[O-])o2)[N+](=O)[O-])N(Cc2cnc(Cl)s2)CC1.[Cl-] [Compound 277]
UNITS SYMBOL: %
MEASURED RESULT: 100
//
COMPOUND: O=[N+]([O-])C(=Cc1cc(Cl)cs1)C1=NCCCN1Cc1ccc(Cl)nc1 [Compound 66]
UNITS SYMBOL: %
MEASURED RESULT: 100

---

# reported Nilaparvata lugens Mortality (%) 500 ppm; entries follow
System: Nilaparvata lugens
MEASUREMENT DESCRIPTION: Insecticidal activities to plant hopper, spraying method
Assay type: in vivo
TEST CONDITIONS: in vivo
OBSERVED PROPERTY: Nilaparvata lugens Mortality (%) 500 ppm

COMPOUND: O=[N+]([O-])C(=Cc1ccc(Br)s1)C1=NCCN1Cc1cnc(Cl)s1
OBSERVED PROPERTY: Nilaparvata lugens Mortality (%) 500 ppm
MEASURED RESULT: 100%

COMPOUND: CN=C(C(=Cc1ccc[nH]1)[N+](=O)[O-])N(C)Cc1ccc(Cl)nc1 [Compound 170]
OBSERVED PROPERTY: Nilaparvata lugens Mortality (%) 500 ppm
MEASURED RESULT: 34%

COMPOUND: O=[N+]([O-])C(=Cc1ccsc1)C1=NCCN1Cc1cnc(Cl)s1
OBSERVED PROPERTY: Nilaparvata lugens Mortality (%) 500 ppm
MEASURED RESULT: 100%

COMPOUND: C[N+]1=C(C(=Cc2cc(Cl)c(Cl)s2)[N+](=O)[O-])N(Cc2ccc(Cl)nc2)CC1.[Cl-]
OBSERVED PROPERTY: Nilaparvata lugens Mortality (%) 500 ppm
MEASURED RESULT: 100%

COMPOUND: O=[N+]([O-])C(=Cc1cccnc1)C1=NCCN1Cc1ccc(Cl)nc1
OBSERVED PROPERTY: Nilaparvata lugens Mortality (%) 500 ppm
MEASURED RESULT: 100%

COMPOUND: CCN(Cc1cnc(Cl)s1)C(=NC)C(=Cc1ccoc1)[N+](=O)[O-]
OBSERVED PROPERTY: Nilaparvata lugens Mortality (%) 500 ppm
MEASURED RESULT: 49%

COMPOUND: CCN=C(C(=Cc1ccc[nH]1)[N+](=O)[O-])N(C)Cc1ccc(Cl)nc1
OBSERVED PROPERTY: Nilaparvata lugens Mortality (%) 500 ppm
MEASURED RESULT: 100%

COMPOUND: CC(=C(C1=NCCN1Cc1ccc(Cl)nc1)[N+](=O)[O-])c1cc(Cl)cs1
OBSERVED PROPERTY: Nilaparvata lugens Mortality (%) 500 ppm
MEASURED RESULT: 86%

COMPOUND: N#CC(=Cc1cc(Br)cs1)C1=NCCN1Cc1ccc(Cl)nc1
OBSERVED PROPERTY: Nilaparvata lugens Mortality (%) 500 ppm
MEASURED RESULT: 100%

COMPOUND: O=[N+]([O-])C(=Cc1cc(Cl)c(Cl)o1)C1=NCCCN1Cc1ccc(Cl)nc1
OBSERVED PROPERTY: Nilaparvata lugens Mortality (%) 500 ppm
MEASURED RESULT: 100%

COMPOUND: O=[N+]([O-])C(=Cc1ccc(Br)s1)C1=NCCCN1Cc1ccc(Cl)nc1
OBSERVED PROPERTY: Nilaparvata lugens Mortality (%) 500 ppm
MEASURED RESULT: 100%

COMPOUND: CC(c1ccc(Cl)nc1)N1CCN=C1C(=Cc1ccc[nH]1)[N+](=O)[O-] (racemic)
OBSERVED PROPERTY: Nilaparvata lugens Mortality (%) 500 ppm
MEASURED RESULT: 100%

COMPOUND: CN=C(C(=Cc1ccc(Cl)s1)[N+](=O)[O-])N(C)Cc1ccc(Cl)nc1 [Compound 169]
OBSERVED PROPERTY: Nilaparvata lugens Mortality (%) 500 ppm
MEASURED RESULT: 67%

COMPOUND: O=[N+]([O-])C(=Cc1cc(Br)c(Br)o1)C1=NCCN1CC1CCOC1 (stereo not drawn)
OBSERVED PROPERTY: Nilaparvata lugens Mortality (%) 500 ppm
MEASURED RESULT: 100%

COMPOUND: O=[N+]([O-])C(=Cc1ccc(Cl)o1)C1=NCCN1CC1CCOC1 (stereo not drawn)
OBSERVED PROPERTY: Nilaparvata lugens Mortality (%) 500 ppm
MEASURED RESULT: 77%

COMPOUND: C[N+]1=C(C(=Cc2cccs2)[N+](=O)[O-])N(Cc2ccc(Cl)nc2)CC1.[Cl-]
OBSERVED PROPERTY: Nilaparvata lugens Mortality (%) 500 ppm
MEASURED RESULT: 100%

COMPOUND: CC[N+]1=C(C(=Cc2cccs2)[N+](=O)[O-])N(Cc2ccc(Cl)nc2)CC1.[Cl-]
OBSERVED PROPERTY: Nilaparvata lugens Mortality (%) 500 ppm
MEASURED RESULT: 100%

COMPOUND: O=[N+]([O-])C(=Cc1ccccn1)C1=NCCN1Cc1ccc(Cl)nc1
OBSERVED PROPERTY: Nilaparvata lugens Mortality (%) 500 ppm
MEASURED RESULT: 56%

COMPOUND: CN=C(C(=Cc1ccsc1)[N+](=O)[O-])N(C)Cc1cnc(Cl)s1
OBSERVED PROPERTY: Nilaparvata lugens Mortality (%) 500 ppm
MEASURED RESULT: 87%

COMPOUND: CCN(Cc1ccc(Cl)nc1)C(=NC)C(=C(C)c1ccoc1)[N+](=O)[O-]
OBSERVED PROPERTY: Nilaparvata lugens Mortality (%) 500 ppm
MEASURED RESULT: 100%

COMPOUND: CN=C(C(=Cc1ccc([N+](=O)[O-])s1)[N+](=O)[O-])N(C)Cc1cnc(Cl)s1
OBSERVED PROPERTY: Nilaparvata lugens Mortality (%) 500 ppm
MEASURED RESULT: 67%

COMPOUND: CN=C(C(=C(C)c1ccsc1)[N+](=O)[O-])N(C)C(C)c1ccc(Cl)nc1 (stereo not drawn)
OBSERVED PROPERTY: Nilaparvata lugens Mortality (%) 500 ppm
MEASURED RESULT: 68%

COMPOUND: CC(=C(C1=NCCN1Cc1ccc(Cl)nc1)[N+](=O)[O-])c1ccc([N+](=O)[O-])o1
OBSERVED PROPERTY: Nilaparvata lugens Mortality (%) 500 ppm
MEASURED RESULT: 100%

COMPOUND: CN=C(C(=Cc1ccc(Br)o1)[N+](=O)[O-])N(C)Cc1ccc(Cl)nc1 [Compound 165]
OBSERVED PROPERTY: Nilaparvata lugens Mortality (%) 500 ppm
MEASURED RESULT: 100%

COMPOUND: O=[N+]([O-])C(=Cc1cc(Cl)c(Cl)o1)C1=NCCN1CC1CCOC1 (stereo not drawn)
OBSERVED PROPERTY: Nilaparvata lugens Mortality (%) 500 ppm
MEASURED RESULT: 90%

COMPOUND: CC(c1ccc(Cl)nc1)N1CCN=C1C(=Cc1ccc(Cl)s1)[N+](=O)[O-] (racemic)
OBSERVED PROPERTY: Nilaparvata lugens Mortality (%) 500 ppm
MEASURED RESULT: 100%

COMPOUND: CN=C(NCc1ccc(Cl)nc1)C(=Cc1ccsc1)[N+](=O)[O-]
OBSERVED PROPERTY: Nilaparvata lugens Mortality (%) 500 ppm
MEASURED RESULT: 97%

COMPOUND: C[N+]1=C(C(=Cc2ccc(Cl)s2)[N+](=O)[O-])N(Cc2cnc(Cl)s2)CC1.[Cl-]
OBSERVED PROPERTY: Nilaparvata lugens Mortality (%) 500 ppm
MEASURED RESULT: 100%

COMPOUND: O=[N+]([O-])C(=Cc1cc(Br)c(Br)o1)C1=NCCN1Cc1ccc(Cl)nc1
OBSERVED PROPERTY: Nilaparvata lugens Mortality (%) 500 ppm
MEASURED RESULT: 100%

COMPOUND: CCN(Cc1ccc(Cl)nc1)C(=NC)C(=Cc1ccc([N+](=O)[O-])s1)[N+](=O)[O-]
OBSERVED PROPERTY: Nilaparvata lugens Mortality (%) 500 ppm
MEASURED RESULT: 100%

COMPOUND: CC(=C(C1=NCCN1Cc1ccc(Cl)nc1)[N+](=O)[O-])c1ccc([N+](=O)[O-])s1
OBSERVED PROPERTY: Nilaparvata lugens Mortality (%) 500 ppm
MEASURED RESULT: 88%

COMPOUND: CCc1ccc(C=C(C2=NCCN2Cc2cnc(Cl)s2)[N+](=O)[O-])o1
OBSERVED PROPERTY: Nilaparvata lugens Mortality (%) 500 ppm
MEASURED RESULT: 100%

COMPOUND: CCN(Cc1ccc(Cl)nc1)C(=NC)C(=C(C)c1ccc([N+](=O)[O-])o1)[N+](=O)[O-]
OBSERVED PROPERTY: Nilaparvata lugens Mortality (%) 500 ppm
MEASURED RESULT: 100%
